pKi: −log10 of the molar value.
The following molecules have recorded pKi on Cathepsin D (Homo sapiens).
Sequence (P07339 65-162 limits assumed): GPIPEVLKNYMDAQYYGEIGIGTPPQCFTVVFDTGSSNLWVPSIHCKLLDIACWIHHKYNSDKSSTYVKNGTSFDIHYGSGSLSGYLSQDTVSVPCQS
Sequence (P07339 169-412 limits assumed): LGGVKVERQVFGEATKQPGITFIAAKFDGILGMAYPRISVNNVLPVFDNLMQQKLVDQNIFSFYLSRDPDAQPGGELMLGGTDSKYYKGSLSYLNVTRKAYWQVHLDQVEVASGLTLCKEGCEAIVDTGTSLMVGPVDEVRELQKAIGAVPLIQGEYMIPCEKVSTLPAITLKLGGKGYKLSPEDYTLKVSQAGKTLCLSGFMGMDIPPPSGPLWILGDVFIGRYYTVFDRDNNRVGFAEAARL
value.type: pKi

A = CCC[C@H](C[C@H](O)[C@H](Cc1ccccc1)NC(=O)C[C@H](NC(=O)CC(C)C)C(=O)O)C(=O)NCC(C)C
B = CC(C)CNC(=O)[C@H](CCO)C[C@H](O)[C@H](Cc1ccccc1)NC(=O)C[C@H](NC(=O)CC(C)C)C(=O)O
C = CC(C)CNC(=O)[C@H](CCC(=O)O)C[C@H](O)[C@H](Cc1ccccc1)NC(=O)C[C@H](NC(=O)CC(C)C)C(=O)O
Output the entries ranked by pKi from maximum down to minimum. Your answer should be the labels, listed in the requested order.
B, A, C

###

- target.desc: Renin (Homo sapiens)
- Sequence (P00797 whole entry): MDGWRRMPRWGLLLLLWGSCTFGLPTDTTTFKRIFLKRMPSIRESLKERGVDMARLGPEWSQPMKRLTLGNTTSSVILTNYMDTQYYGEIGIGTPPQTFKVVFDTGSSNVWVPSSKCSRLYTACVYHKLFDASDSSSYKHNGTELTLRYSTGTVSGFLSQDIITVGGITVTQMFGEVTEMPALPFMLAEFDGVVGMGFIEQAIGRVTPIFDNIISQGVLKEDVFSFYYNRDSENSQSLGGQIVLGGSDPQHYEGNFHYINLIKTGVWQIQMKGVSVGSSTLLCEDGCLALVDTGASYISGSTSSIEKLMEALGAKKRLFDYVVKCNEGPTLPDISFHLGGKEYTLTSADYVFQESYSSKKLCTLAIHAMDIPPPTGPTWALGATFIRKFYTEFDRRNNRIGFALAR
- run.description: Compound was tested for inhibition of human renin
pKi: −log10 of the molar value.
value.type: pKi

A = CC(=O)OCC[C@H](C[C@H](O)[C@H](Cc1ccccc1)NC(=O)C[C@H](NC(=O)CC(C)C)C(=O)O)C(=O)NCC(C)C
B = CC(C)CNC(=O)[C@H](CCC(=O)O)C[C@H](O)[C@H](Cc1ccccc1)NC(=O)C[C@H](NC(=O)CC(C)C)C(=O)O
C = CCC[C@H](C[C@H](O)[C@H](Cc1ccccc1)NC(=O)C[C@H](NC(=O)CC(C)C)C(=O)O)C(=O)NCC(C)C
Output the entries ranked by pKi from maximum down to minimum. Your answer should be the labels, listed in the requested order.
A, C, B
(A: 5.72, C: 4.61, B: 4.13)

The origin of these recorded values is ChEMBL document CHEMBL1147418.
